# Test system: SARS-CoV-2 (WA-1)
# method.summary: Antiviral immunofluorescence assay, SARS-CoV-2 WA1 in Huh7.5 cells
# Format: cell-based
# test.conditions: Severe acute respiratory syndrome coronavirus 2; WA-1, Huh7.5 cells, immunofluorescence, 48 hpi; read-out: EC50
pEC50: −log10 of the molar value.
So basically: pEC50 at 7 or higher? That is yes (1). Lower than 7? That is no (0).

Look over these answered cases.
compound	target.under.test	assigned.class
CCCCCCCCCCCCCCCCOC[C@H](COP(=O)(O)OC[C@H]1O[C@@](C#N)(c2ccc3c(N)ncnn23)[C@H](O)[C@@H]1O)OCc1ccc(OC)c(F)c1 [Compound 11g]	SARS-CoV-2 (WA-1)	yes (1)
CCCCCCCCCCCCCCCCCCOC[C@H](COP(=O)(O)OC[C@H]1O[C@@](C#N)(c2ccc3c(N)ncnn23)[C@H](O)[C@@H]1O)OCc1ccc(OC)c(F)c1 [Compound 9g]	SARS-CoV-2 (WA-1)	yes (1)
CCCCCCCCCCCCCCCCCCOC[C@H](COP(=O)(O)OC[C@H]1O[C@@](C#N)(c2ccc3c(N)ncnn23)[C@H](O)[C@@H]1O)OCCCCCCCC [Compound 9h]	SARS-CoV-2 (WA-1)	no (0)

Please look at the following compound next.
## Task Is pEC50 for CCCCCCCCCCCCCCCCCCOCC(COP(=O)(O)OC[C@H]1O[C@@](C#N)(c2ccc3c(N)ncnn23)[C@H](O)[C@@H]1O)OCc1ccccc1 (stereo partly drawn) [Compound 9c] at or above 7?
## Result no (0)

====

Parameter EC90: see the listing below.
# Test system: SARS-CoV-2 WA1 (USA-WA1/2020)
# method.summary: Antiviral immunofluorescence assay, SARS-CoV-2 WA1 in Calu-3 cells
# Format: cell-based
# test.conditions: Severe acute respiratory syndrome coronavirus 2; WA1, Calu-3 cells, immunofluorescence, 44 hpi, mean ± SD
Report as a plain number; the unit nM is understood.

In the examples that follow, each entry is paired with its recorded EC90.
structure.string	measurement.name	numeric.value
CCCCCCCCCCCCCCCCCCOC[C@H](COP(=O)(O)OC[C@H]1O[C@@](C#N)(c2ccc3c(N)ncnn23)[C@H](O)[C@@H]1O)OCc1cccc(C#N)c1	EC90	65
CCCCCCCCCCCCCCCCCCOC[C@H](COP(=O)(O)OC[C@H]1O[C@@](C#N)(c2ccc3c(N)ncnn23)[C@H](O)[C@@H]1O)OCc1ccc(C(F)(F)F)cc1	EC90	408
CCCCCCCCCCCCCCCCCCOC[C@H](COP(=O)(O)OC[C@H]1O[C@@](C#N)(c2ccc3c(N)ncnn23)[C@H](O)[C@@H]1O)OCc1ccccc1C#N	EC90	186

Moving on to another molecule below.
## Task Notebook: pull reported EC90 for SARS-CoV-2 WA1 (USA-WA1/2020), entry CCCCCCCCCCCCCCCCCCOC[C@H](COP(=O)(O)OC[C@H]1O[C@@](C#N)(c2ccc3c(N)ncnn23)[C@H](O)[C@@H]1O)OCc1ccc(OC)c(F)c1
## Result 145

====

# method.summary: in vitro
# test.conditions: human
measurement.name: CC50 at 44 h (µM)
Please state the figure in µM; there is no need to write the unit.

// known answers, use as guide
compound	endpoint.unit	numeric.value
CCCCCCCCCCCCCCCCCCOC[C@H](COP(=O)(O)OC[C@H]1O[C@@](C#N)(c2ccc3c(N)ncnn23)[C@H](O)[C@@H]1O)OCCC1CCCCC1 [Compound 9i]	µM	98.7
CCCCCCCCCCCCCCCCCCOCC(COP(=O)(O)OC[C@H]1O[C@@](C#N)(c2ccc3c(N)ncnn23)[C@H](O)[C@@H]1O)OCc1ccccc1 (stereo partly drawn) [Compound 9c]	µM	92.1
CCCCCCCCCCCCCCCCOC[C@H](COP(=O)(O)OC[C@H]1O[C@@](C#N)(c2ccc3c(N)ncnn23)[C@H](O)[C@@H]1O)OCc1ccccc1 [Compound 11a]	µM	88.7
CCCCCCCCCCCCCCCCCCOC[C@H](COP(=O)(O)OC[C@H]1O[C@@](C#N)(c2ccc3c(N)ncnn23)[C@H](O)[C@@H]1O)OCc1ccccc1C#N [Compound 9l]	µM	82.8
CCCCCCCCCCCCCCCCCCOC[C@H](COP(=O)(O)OC[C@H]1O[C@@](C#N)(c2ccc3c(N)ncnn23)[C@H](O)[C@@H]1O)OCc1cccc(C#N)c1 [Compound 9k]	µM	61.6

## Task Which CC50 at 44 h is listed for CCCCCCCCCCCCCCCCCCOC[C@H](COP(=O)(O)OC[C@H]1O[C@@](C#N)(c2ccc3c(N)ncnn23)[C@H](O)[C@@H]1O)OCc1cccc(C(F)(F)F)c1 [Compound 9e] ?
## Result 66.9

## Task Repeat for the following compound: CCCCCCCCCCCCCCCCCCOC[C@@H](COP(=O)(O)OC[C@H]1O[C@@](C#N)(c2ccc3c(N)ncnn23)[C@H](O)[C@@H]1O)OCc1ccccc1 [Compound 9b]
## Result 93.4

## Task Same lookup for CCCCCCCCCCCCCCCCCCOC[C@H](COP(=O)(O)OC[C@H]1O[C@@](C#N)(c2ccc3c(N)ncnn23)[C@H](O)[C@@H]1O)OCc1ccc(OC)c(F)c1 [Compound 9g] , please.
## Result 50.5

## Task Another compound: CCCCCCCCCCCCCCCCOC[C@H](COP(=O)(O)OC[C@H]1O[C@@](C#N)(c2ccc3c(N)ncnn23)[C@H](O)[C@@H]1O)OCc1ccc(OC)c(F)c1 [Compound 11g]
## Result 75.7

## Task Moving on to the next compound: CCCCCCCCCCCCCCCCCCOC[C@H](COP(=O)(O)OC[C@H]1O[C@@](C#N)(c2ccc3c(N)ncnn23)[C@H](O)[C@@H]1O)OCc1cccc(F)c1 [Compound 9d]
## Result 94.7

## Task Now consider CCCCCCCCCCCCCCCCCCOC[C@H](COP(=O)(O)OC[C@H]1O[C@@](C#N)(c2ccc3c(N)ncnn23)[C@H](O)[C@@H]1O)OCc1ccc(C#N)cc1 [Compound 9j] .
## Result 60.2

## Task Query CCCCCCCCCCCCCCCCCCOC[C@H](COP(=O)(O)OC[C@H]1O[C@@](C#N)(c2ccc3c(N)ncnn23)[C@H](O)[C@@H]1O)OCc1ccccc1 [Compound V2043] next
## Result 58.3

## Task What do you get for CCCCCCCCCCCCCCCCCCOC[C@H](COP(=O)(O)OC[C@H]1O[C@@](C#N)(c2ccc3c(N)ncnn23)[C@H](O)[C@@H]1O)OCc1ccc(C(F)(F)F)cc1 [Compound 9f] ?
## Result 90.2
